- System: normal primary NK cells, pool 3 (3 donors) (IL-2 2.5 ng/mL);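 note: normalised to DMSO-only wells as negative and benzethonium chloride as positive control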
- EXPERIMENTAL_DETAILS: percent inhibition of viability; higher = more inhibition
- TEST_CONDITIONS: 72 h; 10000 nM
percent inhibition of viability values, listed per item

COMPOUND	percent inhibition of viability [%]
CCc1nc(-c2cccc(C)c2)c(-c2ccnc(NC(=O)c3ccccc3)c2)s1 [TAK-715] (max concentration tested 10000 nM)	13.7
Cn1cnc2c(F)c(Nc3ccc(Br)cc3Cl)c(C(=O)NOCCO)cc21 [Selumetinib] (max concentration tested 10000 nM)	13.4
COc1cc([C@@H]2c3cc4c(cc3[C@@H](O[C@@H]3O[C@@H]5CO[C@@H](c6cccs6)O[C@H]5[C@H](O)[C@H]3O)[C@H]3COC(=O)[C@H]23)OCO4)cc(OC)c1O [Teniposide] (max concentration tested 10000 nM)	97
COc1ccc(C[C@H](NC(=O)[C@H](C)NC(=O)CN2CCOCC2)C(=O)N[C@@H](Cc2ccccc2)C(=O)C2(C)CO2)cc1 (stereo in doubt) [ONX-0914] (max concentration tested 10000 nM)	100
C[C@H]1C[C@@H]2[C@H]([C@@H](O)C[C@@]3(C)[C@H]2CC[C@]3(O)C(=O)CO)[C@@]2(C)C=CC(=O)C=C12 [Methylprednisolone] (max concentration tested 10000 nM)	58.4
